Where do these numbers come from? They come from patent US10723701B2.

- target: AXL (Homo sapiens, UniProt P30530)
- Construct: purchased ProQinase GmbH
- Sequence (P30530 26-894): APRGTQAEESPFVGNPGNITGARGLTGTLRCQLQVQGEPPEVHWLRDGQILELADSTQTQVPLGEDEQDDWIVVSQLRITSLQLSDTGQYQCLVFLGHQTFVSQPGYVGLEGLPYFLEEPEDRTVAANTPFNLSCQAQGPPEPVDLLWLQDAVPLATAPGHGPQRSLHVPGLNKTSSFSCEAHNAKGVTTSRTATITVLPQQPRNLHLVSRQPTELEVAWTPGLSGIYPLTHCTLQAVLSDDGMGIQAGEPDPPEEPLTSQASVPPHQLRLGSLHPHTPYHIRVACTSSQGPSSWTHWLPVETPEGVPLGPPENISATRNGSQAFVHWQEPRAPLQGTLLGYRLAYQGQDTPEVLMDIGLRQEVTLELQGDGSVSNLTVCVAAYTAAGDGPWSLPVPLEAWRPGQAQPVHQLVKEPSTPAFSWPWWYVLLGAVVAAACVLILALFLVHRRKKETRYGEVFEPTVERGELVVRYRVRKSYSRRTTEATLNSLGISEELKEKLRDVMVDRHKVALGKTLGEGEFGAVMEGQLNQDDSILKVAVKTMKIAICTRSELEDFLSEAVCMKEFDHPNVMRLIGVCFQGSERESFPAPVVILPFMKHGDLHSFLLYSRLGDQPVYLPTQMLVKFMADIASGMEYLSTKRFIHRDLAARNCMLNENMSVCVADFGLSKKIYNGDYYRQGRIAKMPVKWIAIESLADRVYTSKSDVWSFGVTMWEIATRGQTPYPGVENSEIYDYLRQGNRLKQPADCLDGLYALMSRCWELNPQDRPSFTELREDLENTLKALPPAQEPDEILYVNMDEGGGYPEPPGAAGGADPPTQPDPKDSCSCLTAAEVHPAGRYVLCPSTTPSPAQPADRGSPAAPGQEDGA
- testProtocol: Radioactive protein kinase assay (33PanQinase Activity Assay), AXL
- conditions: ATP 0.3 μM (Km), substrate Poly(Glu, Tyr) 4:1, 30° C., 60 minutes; read-out: Biochemical IC50 (nM) AXL
parameter: IC50 (nM)

# count of solved cases: 2
| molecule | target | IC50 (nM) |
| --- | --- | --- |
| COc1cc2c(Oc3ccc(NC(=O)C4(C(=O)Nc5ccc(F)cc5)CC4)cc3F)ccnc2cc1OCCCCCC(=O)O [Example 12] | AXL (Homo sapiens, UniProt P30530) | 10.7 |
| COc1cc2c(Oc3ccc(NC(=O)C4(C(=O)Nc5ccc(F)cc5)CC4)cc3F)ccnc2cc1OCCCCCC(=O)O [Example 10] | AXL (Homo sapiens, UniProt P30530) | 11.9 |

a: COc1cc2c(Oc3ccc(NC(=O)C4(C(=O)Nc5ccc(F)cc5)CC4)cc3F)ccnc2cc1OCCCCCCC(=O)O [Example 14]
b: COc1cc2c(Oc3ccc(NC(=O)C4(C(=O)Nc5ccc(F)cc5)CC4)cc3F)ccnc2cc1OCCCC(=O)O [Example 4]
Dear colleague, could you let me know whether a or b has the lower recorded IC50? Thanks. Indicate which entry you chose by stating its label. b
(b: 9.05 nM, a: 13.7 nM)

* * *

- target: AXL (Homo sapiens, UniProt P30530)
- Construct: purchased ProQinase GmbH
- testProtocol: Radioactive protein kinase assay (33PanQinase Activity Assay), AXL
- conditions: ATP 0.3 μM (Km), substrate Poly(Glu, Tyr) 4:1, 30° C., 60 minutes; read-out: Biochemical IC50 (nM) AXL
parameter: IC50 (nM)

# count of solved cases: 7
| compound | unitSpec | IC50 |
| --- | --- | --- |
| COc1cc2c(Oc3ccc(NC(=O)C4(C(=O)Nc5ccc(F)cc5)CC4)cc3F)ccnc2cc1OCCCCC(=O)O [Example 8] | nM | 6.08 |
| COc1cc2c(Oc3ccc(NC(=O)C4(C(=O)Nc5ccc(F)cc5)CC4)cc3F)ccnc2cc1OCCCCCC(=O)O [Example 13] | nM | 8.63 |
| COc1cc2c(Oc3ccc(NC(=O)C4(C(=O)Nc5cccc(Cl)c5)CC4)cc3F)ccnc2cc1OCCCCCCC(=O)O | nM | 19.8 |
| COc1cc2c(Oc3ccc(NC(=O)C4(C(=O)Nc5ccc(F)cc5)CC4)cc3F)ccnc2cc1OCCCCC(=O)O [Example 6] | nM | 7.49 |
| COc1cc2c(Oc3ccc(NC(=O)C4(C(=O)Nc5ccc(F)cc5)CC4)cc3F)ccnc2cc1OCC(=O)O | nM | 55.3 |
| COc1cc2c(Oc3ccc(NC(=O)C4(C(=O)Nc5ccc(F)cc5)CC4)cc3F)ccnc2cc1OCCCCCC(=O)O [Example 9] | nM | 10.2 |
| CCOc1cc2c(Oc3ccc(NC(=O)C4(C(=O)Nc5ccc(F)cc5)CC4)cc3F)ccnc2cc1OCC(=O)O | nM | 10.7 |

a: COc1cc2c(Oc3ccc(NC(=O)C4(C(=O)Nc5ccc(F)cc5)CC4)cc3F)ccnc2cc1OCCCC(=O)O [Example 3]
b: COc1cc2c(Oc3ccc(NC(=O)C4(C(=O)Nc5ccc(F)cc5)CC4)cc3F)ccnc2cc1OCCCCCC(=O)O [Example 11]
In the pair a and b , the larger recorded IC50 belongs to which? Indicate which entry you chose by stating its label. b

* * *

- target: VEGFR2 (Homo sapiens)
- Construct: purchased ProQinase GmbH
- Sequence (P35968 20-1356): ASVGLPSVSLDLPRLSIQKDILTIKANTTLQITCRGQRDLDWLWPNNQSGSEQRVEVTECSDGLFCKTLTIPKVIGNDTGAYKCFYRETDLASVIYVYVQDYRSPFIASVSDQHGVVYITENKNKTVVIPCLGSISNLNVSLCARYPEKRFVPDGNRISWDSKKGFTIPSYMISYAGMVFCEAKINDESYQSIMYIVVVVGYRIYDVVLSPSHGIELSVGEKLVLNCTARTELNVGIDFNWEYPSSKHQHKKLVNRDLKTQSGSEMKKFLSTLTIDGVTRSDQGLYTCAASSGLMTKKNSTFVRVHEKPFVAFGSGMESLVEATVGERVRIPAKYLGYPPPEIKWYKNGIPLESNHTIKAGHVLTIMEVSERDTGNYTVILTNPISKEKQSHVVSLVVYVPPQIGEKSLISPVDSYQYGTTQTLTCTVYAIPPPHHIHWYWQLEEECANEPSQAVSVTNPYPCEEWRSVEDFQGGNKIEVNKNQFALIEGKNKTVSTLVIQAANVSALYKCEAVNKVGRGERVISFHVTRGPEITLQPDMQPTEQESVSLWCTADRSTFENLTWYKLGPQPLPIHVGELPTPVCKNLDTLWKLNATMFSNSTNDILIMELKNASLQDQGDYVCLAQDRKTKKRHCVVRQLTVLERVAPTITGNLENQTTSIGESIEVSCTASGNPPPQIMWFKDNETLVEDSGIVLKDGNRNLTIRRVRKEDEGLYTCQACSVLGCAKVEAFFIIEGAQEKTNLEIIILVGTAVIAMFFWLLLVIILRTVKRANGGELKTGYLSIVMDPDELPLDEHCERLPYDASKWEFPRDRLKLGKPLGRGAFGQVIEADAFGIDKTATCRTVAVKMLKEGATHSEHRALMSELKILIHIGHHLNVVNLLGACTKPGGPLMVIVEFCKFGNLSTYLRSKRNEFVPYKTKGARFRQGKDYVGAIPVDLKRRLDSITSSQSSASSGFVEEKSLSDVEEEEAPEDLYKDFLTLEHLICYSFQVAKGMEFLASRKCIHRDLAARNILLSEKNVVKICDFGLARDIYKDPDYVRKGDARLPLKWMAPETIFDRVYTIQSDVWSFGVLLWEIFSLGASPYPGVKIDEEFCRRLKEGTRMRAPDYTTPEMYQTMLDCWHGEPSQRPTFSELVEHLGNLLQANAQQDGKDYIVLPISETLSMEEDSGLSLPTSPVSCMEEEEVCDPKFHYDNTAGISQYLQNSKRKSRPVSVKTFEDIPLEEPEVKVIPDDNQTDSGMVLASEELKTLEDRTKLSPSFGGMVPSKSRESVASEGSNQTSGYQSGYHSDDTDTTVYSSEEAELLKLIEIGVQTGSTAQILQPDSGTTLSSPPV
- testProtocol: Radioactive protein kinase assay (33PanQinase Activity Assay), VEGFR2
- conditions: ATP 1.0 μM (Km), substrate Poly(Glu, Tyr) 4:1, 30° C., 60 minutes; read-out: Biochemical IC50 (nM) VEGFR2
parameter: IC50 (nM)

# count of solved cases: 3
| compound | IC50 / nM |
| --- | --- |
| COc1cc2c(Oc3ccc(NC(=O)C4(C(=O)Nc5ccc(F)cc5)CC4)cc3F)ccnc2cc1OCCCCCC(=O)O [Example 11] | 13.6 |
| COc1cc2c(Oc3ccc(NC(=O)C4(C(=O)Nc5ccc(F)cc5)CC4)cc3F)ccnc2cc1OCCCCCC(=O)O [Example 12] | 10.4 |
| COc1cc2c(Oc3ccc(NC(=O)C4(C(=O)Nc5ccc(F)cc5)CC4)cc3F)ccnc2cc1OCCCCCCC(=O)O | 13.6 |

I: CCOc1cc2c(Oc3ccc(NC(=O)C4(C(=O)Nc5ccc(F)cc5)CC4)cc3F)ccnc2cc1OCC(=O)O
II: COc1cc2c(Oc3ccc(NC(=O)C4(C(=O)Nc5ccc(F)cc5)CC4)cc3F)ccnc2cc1OCCCC(=O)O [Example 3]
Dear colleague, could you let me know whether I or II has the lower recorded IC50? Thanks. Indicate which entry you chose by stating its label. II
(II: 6.56 nM, I: 9.86 nM)
